- ASSAY COMMENT: qHTS of pediatric cancer cell lines to identify multiple opportunities for drug repurposing: Primary screen for RD cells (AID 1347104); also: nearly all actives have a fitted effect of over 55% in size
- COND: RD rhabdomyosarcoma viability, CellTiter-Glo luminescence, 48 h; series mostly up to 46 µM
Results filed as inconclusive are left out. Activity calls are given as the source filed them. Calls follow the shape of the dose curve; as a rule, active = well fitted cell-killing curve with a large enough effect; inconclusive = small, poorly fitted or top-dose-only effect; inactive = flat fitted curve, though single readings scatter.
Hi there, use one of these labels in your reply, thanks! active, inactive

Worked examples, 6 compounds total:
{"columns": ["COMPOUND", "CATEGORY"],
 "data": [
  ["OC1(c2ccc(Cl)c(C(F)(F)F)c2)CCN(CCCC(c2ccc(F)cc2)c2ccc(F)cc2)CC1", "active"],
  ["O=P(O)(O)OCC(O)CO (configuration not stated)", "inactive"],
  ["CC(C)C(=O)Nc1cccc(C2CN3CCSC3=N2)c1 (configuration not stated)", "inactive"],
  ["Brc1ccccc1-c1ccccc1", "inactive"],
  ["Cc1cccc(OCC(O)CNC(C)(C)C)c1C (configuration not stated)", "inactive"],
  ["CCCCOC(=O)CCCCCCCCC(=O)OCCCC", "inactive"]
]}

Query string: What call does the record list for COc1cc(NS(=O)(=O)c2ccc(N)cc2)nc(C)n1 ?
Result string: inactive

###

- ASSAY COMMENT: qHTS of pediatric cancer cell lines to identify multiple opportunities for drug repurposing: Primary screen for LAN-5 cells (AID 1347100)
- COND: LAN-5 neuroblastoma viability, CellTiter-Glo luminescence, 48 h; series mostly up to 46 µM
Inconclusive results are not listed. The source made the active and inactive calls. Calls come from the whole dose curve; as a rule, active = well fitted cell-killing curve with a large enough effect; inconclusive = small, poorly fitted or top-dose-only effect; inactive = no such curve, though single readings can be large or run the other way.
Hi there, use one of these labels in your reply, thanks! active, inactive

{"columns": ["MOLECULE", "CATEGORY"],
 "data": [
  ["CCCOc1ccc2c(c1)CC[C@@H]1[C@@H]2CC[C@]2(C)C(OC)CC[C@@H]12 (stereo partly specified)", "inactive"],
  ["O=C(CCCl)NCCc1ccccc1", "inactive"],
  ["O=C1CC2(CCCC2)CC(=O)N1CCNCC1COc2ccccc2O1 (stereo unspecified)", "inactive"],
  ["O=C(O)/C=C(\\CC(=O)O)C(=O)O", "inactive"],
  ["N[C@@H](Cc1cc(I)c(O)c(I)c1)C(=O)O", "inactive"]
]}

Consider now this further molecule.
Query string: What call does the record list for COc1c(C)c2c(c(O)c1C/C=C(\C)CCC(=O)OCCN1CCOCC1)C(=O)OC2 ?
Result string: active

###

- ASSAY COMMENT: Primary qHTS for inhibitors of nuclear receptor binding SET domain protein 2 (NSD2) in an RCH-ACV wild type WT cells (2C) (AID 1645877); also: nearly all actives have a fitted effect of over 70% in size
- COND: RCH-ACV (leukaemia line) NSD2 WT (2C) viability, CellTiter-Glo, 72 h; series mostly up to 44.9 µM
Inconclusive results are not listed. Calls of active or inactive are those of the source. Calls come from the whole dose curve; as a rule, active = well fitted inhibition curve with a large enough effect; inconclusive = small, poorly fitted or top-dose-only effect; inactive = no such curve, though single readings can be large or run the other way.
Hi there, use one of these labels in your reply, thanks! yes (active), no (inactive)

{"columns": ["MOLECULE", "CATEGORY"],
 "data": [
  ["O=C(CCCl)NCCc1ccccc1", "no"],
  ["CC(=O)O[C@H]1CC[C@@]2(C)C(=CC[C@@H]3[C@@H]2CC[C@]2(C)C(C(C)=O)=CC[C@@H]32)C1", "no"],
  ["COC(=O)c1cc(S(N)(=O)=O)ccc1OC", "no"],
  ["COc1ccccc1N1CCN(CC(O)COc2cc(OC)c(OC)c(OC)c2)CC1 (stereo not given)", "no"]
]}

Query string: What call does the record list for CC(C)(C)c1ccc(C(=O)CCCCl)cc1 ?
Result string: no

Query string: What call does the record list for O=c1[nH]c2ccccc2c(=O)n1CCCl ?
Result string: no

Query string: What call does the record list for CCCCCCn1c(=O)c2c(ncn2C)n(C)c1=O ?
Result string: no

Query string: What call does the record list for CC(C)(C)C(=O)OCOC(=O)C1N2C(=O)CC2S(=O)(=O)C1(C)C (stereo not given) ?
Result string: no

Query string: What call does the record list for C#Cc1ccc(-c2ccccc2F)cc1 ?
Result string: no

Query string: What call does the record list for Nc1cccc2c(N)cccc12 ?
Result string: yes

Query string: What call does the record list for CCCC(=O)O[C@]1(C(=O)CCl)[C@@H](C)C[C@H]2[C@@H]3CCC4=CC(=O)C=C[C@]4(C)[C@@]3(F)C(=O)C[C@@]21C ?
Result string: yes

Query string: What call does the record list for O=[N+]([O-])c1cncn1CCN1CCOCC1 ?
Result string: no

Query string: What call does the record list for NC(=O)COCCN1CCN(C(c2ccccc2)c2ccc(Cl)cc2)CC1 (stereo not given) ?
Result string: no

Query string: What call does the record list for COc1cc2c(cc1OC)C(=O)CC2 ?
Result string: no

###

- Test system: UISO
- ASSAY COMMENT: qHTS assay to identify novel small-molecules to repurpose for Merkel cell carcinoma treatment (AID 1296009); also: nearly all actives have a fitted effect of over 60% in size
- COND: MCC and control cell lines, CellTiter-Glo viability, 72 h; series mostly up to 46 µM
Results filed as inconclusive are left out. The source made the active and inactive calls. Calls follow the shape of the dose curve; as a rule, active = well fitted inhibition curve with a large enough effect; inconclusive = small, poorly fitted or top-dose-only effect; inactive = flat fitted curve, though single readings scatter.
Hi there, use one of these labels in your reply, thanks! active, inactive

{"columns": ["COMPOUND", "CATEGORY"],
 "data": [
  ["COc1ccc(/C(C)=C/C(=O)O)c(OC)c1", "inactive"],
  ["CCCCCCCCCCCCCCCCCCNC(=O)OC1CCN(C(=O)OC[C@H](COC(=O)N(Cc2cccc[n+]2CC)C(=O)c2ccccc2OC)OC)CC1", "active"],
  ["CC(C)(Oc1ccc(Cl)cc1)C(=O)OCCCOC(=O)C(C)(C)Oc1ccc(Cl)cc1", "inactive"],
  ["CCCCCCCC(=O)[O-].CCCCCCCC(=O)[O-].[Zn+2]", "inactive"],
  ["CC[C@@H]([C@H](C)O)n1ncn(-c2ccc(N3CCN(c4ccc(OC[C@@H]5CO[C@@](Cn6cncn6)(c6ccc(F)cc6F)C5)cc4)CC3)cc2)c1=O", "inactive"]
]}

Query string: What call does the record list for Nc1cc(C(F)(F)F)ccc1S ?
Result string: active

Query string: What call does the record list for Cc1cc(=O)oc2cc(O[C@@H]3SC[C@@H](O)[C@H](O)[C@H]3O)ccc12 ?
Result string: inactive

Query string: What call does the record list for C[C@H]1C[C@@H]2[C@H]([C@@H](O)C[C@@]3(C)[C@H]2CC[C@]3(O)C(=O)CO)[C@@]2(C)C=CC(=O)C=C12 ?
Result string: inactive

Query string: What call does the record list for CC(C)C[C@@H]1[C@H](c2ccccc2)OC(=O)N1CCCN1CCCCCC1 ?
Result string: inactive

Query string: What call does the record list for COC(=O)/C=C\C(=O)OC ?
Result string: inactive

###

- ASSAY COMMENT: qHTS of pediatric cancer cell lines to identify multiple opportunities for drug repurposing: Confirmatory screen for control Hh wild type fibroblast cells (AID 1347121); also: nearly all actives have a fitted effect of over 70% in size
- COND: viability qHTS; series mostly up to 45.9 µM
Records with an inconclusive call do not appear. Activity calls are given as the source filed them. Calls come from the whole dose curve; as a rule, active = well fitted cell-killing curve with a large enough effect; inconclusive = small, poorly fitted or top-dose-only effect, or effect the other way; inactive = flat fitted curve, though single readings scatter.
Hi there, use one of these labels in your reply, thanks! active, inactive

Worked examples, 5 compounds total:
{"columns": ["COMPOUND", "CATEGORY"],
 "data": [
  ["C[C@H]1C[C@@H]2[C@H]([C@@H](O)C[C@@]3(C)[C@H]2CC[C@]3(O)C(=O)CO)[C@@]2(C)C=CC(=O)C=C12", "inactive"],
  ["Cc1cc(OCCOCC[N+](C)(C)Cc2ccccc2)ccc1C(C)(C)CC(C)(C)C", "active"],
  ["CO[C@@H]1[C@@H](OC)[C@H](C)[C@@](O)(CC(=O)O)O[C@H]1[C@H](C)[C@H]1O[C@@]2(CC[C@@](C)([C@H]3CC[C@@](C)([C@@H]4O[C@@H]([C@H]5O[C@](C)(O)[C@H](C)C[C@@H]5C)C[C@@H]4OC4C[C@H](OC)[C@@H](OC)[C@H](C)O4)O3)O2)C[C@H](O)[C@H]1C (some centres not stated)", "active"],
  ["Cc1nc(N)nc(N)c1-c1ccc(Cl)c(Cl)c1", "inactive"],
  ["CC(=O)OCC(=O)[C@@]1(O)[C@H](OC(C)=O)C[C@H]2[C@@H]3CCC4=CC(=O)C=C[C@]4(C)[C@@]3(F)[C@@H](O)C[C@@]21C", "inactive"]
]}

Query string: What call does the record list for CC(=O)OCC(=O)[C@@]1(O)CCC2C3CCC4=CC(=O)CC[C@]4(C)C3[C@@H](O)C[C@@]21C (some centres not stated) ?
Result string: inactive

Query string: What call does the record list for COc1cc(/C=C/C(N)=O)cc(OC)c1OC ?
Result string: inactive

Query string: What call does the record list for CC(=O)O[C@@H]1C(=O)O[C@@H]2[C@H]1OC(=O)[C@@H]2OC(C)=O ?
Result string: inactive

Query string: What call does the record list for CCCC(=O)O[C@]1(C(=O)COC(=O)CC)CC[C@H]2[C@@H]3CCC4=CC(=O)CC[C@]4(C)[C@H]3[C@@H](O)C[C@@]21C ?
Result string: inactive

Query string: What call does the record list for CCN(CC)CC(=O)OCC(=O)[C@@]1(O)CC[C@H]2[C@@H]3CCC4=CC(=O)CC[C@]4(C)[C@H]3[C@@H](O)C[C@@]21C ?
Result string: inactive

Query string: What call does the record list for CN(C)CCN(Cc1ccsc1)c1ccccn1 ?
Result string: inactive

Query string: What call does the record list for CCc1cc2cc(OC)c(OC)cc2c(Cc2ccccc2)n1 ?
Result string: inactive
